Tested on: MES-SA
Experiment: Compound was evaluated for cytotoxic activity against the following human cancer cell Uterine cancer cell line Mes-SA
Type: functional, cell-based
property-label: pIC50
Numbers only, as −log10 of the molar value.

compound-smiles	pIC50
c1ccc(N(c2ccccc2)c2ccc(CNCCCCNCc3ccc(N(c4ccccc4)c4ccccc4)cc3)cc2)cc1	6.19

Moving on to another compound below.
# input What pIC50 value was documented for this compound, `c1ccc2c(CNCCCCNCc3cccc4ccccc34)cccc2c1` ?
# output 5.00

---

Tested on: SK-MEL-5
Assay: Compound was evaluated for cytotoxic activity against human melanoma cell line SK-Mel-5
Type: functional, cell-based
Please respond with reported IC50 for every item in the list.
Numbers only, in µM.

compound-smiles	IC50 [µM]
c1ccc(N(c2ccccc2)c2ccc(CNCCCCNCc3ccc(N(c4ccccc4)c4ccccc4)cc3)cc2)cc1	0.94

# input for lookup
# input Would you kindly share the measured IC50 for `c1ccc2c(CNCCCCNCc3cccc4ccccc34)cccc2c1` ?
# output 4.6

---

I'd be grateful if you could share measured pIC50 for these entries.
Tested on: MDA-MB-231
Assay: Compound was evaluated for cytotoxic activity against human breast cancer cell line MDA-MB-231
Assay type: functional, cell-based
Give bare numbers, as −log10 of the molar value.

These recorded examples may help you get a feel for the data.
compound-smiles	pIC50
c1ccc(N(c2ccccc2)c2ccc(CNCCCCNCc3ccc(N(c4ccccc4)c4ccccc4)cc3)cc2)cc1	6.21
c1ccc2c(CNCCCCNCc3cccc4ccccc34)cccc2c1	5.04

# input Record request: pIC50 value, item `c1ccc(-c2ccc(CNCCCCNCc3ccc(-c4ccccc4)cc3)cc2)cc1`
# output 5.72

---

Tested on: Mes-SA/Dx5 (Homo sapiens)
Assay: Compound was evaluated for cytotoxic activity against the following human cancer cell MDR Uterine cancer cell line Mes-SA/Dx5
Task for the reader: assign each of the following compounds its reported IC50.
Answers are plain numbers, in µM.

compound-smiles	meas-value
c1ccc2c(CNCCCCNCc3cccc4ccccc34)cccc2c1	7.2

# input Data request, read-out IC50, for `c1ccc(N(c2ccccc2)c2ccc(CNCCCCNCc3ccc(N(c4ccccc4)c4ccccc4)cc3)cc2)cc1`
# output 0.61
